So I've got a bunch of molecules here, and I need their growth values.
Test system: SF-295 CNS
Assay: NCI-60 one-dose screen, 48 h (100 = growth as untreated, 0 = no growth, -100 = all killed)
Conditions: 10 µM unless noted
About 83,000 compounds went through this panel and 20% of them were active in at least one assay; those are over-represented in the sample as a whole.
Response body: numeric value in %, unit text excluded.

Prompt: Form field: reported growth of `Cc1cc(C(=O)Nc2ccc(SC#N)cc2)c(C)o1`
Completion: 92.4

Prompt: Also check `COc1cc2c3c(n(CCCN4CCC[C@H]4C(N)=O)c(=O)c2cc1OC)-c1cc2c(cc1C3=O)OCO2`
Completion: 7.46

Prompt: Also check `Oc1ccc(CSc2nnc(-c3ccncc3)n2-c2ccccc2)c2cccnc12`
Completion: 4.58

Prompt: Also check `O=C(Nc1ccc(Cl)cc1)Nc1nc2ccc([N+](=O)[O-])cc2s1`
Completion: -57.9

Prompt: Also check `COc1ccc(Cn2cc3c(c2-c2cc(OC)c(OC)c(OC)c2)CCCc2cnoc2-3)cc1`
Completion: 5.29

Prompt: Also check C/C(=N\NC(=O)CSc1nc2sc3c(c2c(=O)n1-c1ccccc1)CCC(C)C3)c1ccc(Cl)cc1 (centres undefined)
Completion: 40.9

Prompt: Also check `Cc1ccc(-n2cc(/C=C/C(=O)c3ccc(S(C)(=O)=O)cc3)c(-c3ccc(S(C)(=O)=O)cc3)n2)cc1`
Completion: 97.2

Prompt: Also check `Cn1cc(-c2nn3c(=O)cc(-c4ccccc4)nc3s2)c2cc(F)ccc21`
Completion: 34.7

Prompt: Also check `CC1=C2C(=C[C@@](C)(COS(N)(=O)=O)[C@@H]2O)C(=O)[C@](C)(O)C12CC2`
Completion: 20.5

====

Test system: SNB-19 CNS
Assay: NCI-60 one-dose screen, 48 h (100 = growth as untreated, 0 = no growth, -100 = all killed)
Details: 10 µM unless noted
This is part of a sample that, as a whole, favours compounds with a hit. Of some 83,000 tested, about 20% had one in any assay.
So I've got a bunch of compounds here, and I need their growth values.
Response body: numeric value in %, unit text excluded.

Prompt: Form field: reported growth of CS(=O)c1nccc(-c2c(-c3ccc(F)c(OCc4ccccc4)c3)nc3sccn23)n1 (centres undefined)
Completion: 93.3

Prompt: Also check `NS(=O)(=O)Oc1ccc2nc(Nc3ccc(F)c(F)c3)ccc2c1`
Completion: 102

Prompt: Also check CCN1C(=O)N(CC)C2SC(N/N=C/c3ccccc3F)=NC21 (centres undefined)
Completion: 24.6

Prompt: Also check `N=c1c2cc(-c3ccccc3)oc2ncn1/N=C/c1ccccc1`
Completion: 87.5

Prompt: Also check `Cc1nn(-c2ccc(Cl)cc2)c(C)c1N=Nc1ccc2oc(=O)ccc2c1`
Completion: 97.3

Prompt: Also check `O=C(c1cccc(F)c1)n1ccc2cc(NC(=S)Nc3cccnc3)ccc21`
Completion: 86.5

Prompt: Also check `Clc1ccccc1/C=C/c1nn2c(-c3ccncc3)nnc2s1`
Completion: 99.6

Prompt: Also check `C=C1C(=O)O[C@@H]2/C=C(/C)C3=CC(=O)[C@@](C)(C[C@H](OC(=O)/C(C)=C\C)[C@@H]12)O3`
Completion: 64.4

Prompt: Also check `Cc1ccc(S(=O)(=O)N/N=C/c2cn(-c3ccc(F)cc3)nc2-c2ccc(S(C)(=O)=O)cc2)cc1`
Completion: 97.1

Prompt: Also check C#CCOc1ccc(C(Nc2cc(Cl)ccc2Cl)c2nnnn2C2CCCCC2)cc1 (centres undefined)
Completion: 86

Prompt: Also check `O=C(Nc1ccc(Cl)cc1)Nc1nc2ccc([N+](=O)[O-])cc2s1`
Completion: 11.5

Prompt: Also check `C=C(C)C(=O)O[C@H]1C[C@@]2(C)OC(=CC2=O)/C(CO)=C\[C@H]2OC(=O)C(=C)[C@H]12`
Completion: 42.2

Prompt: Also check `O=C1NC(=O)/C(=C/c2ccc(OCc3cc4ccccc4nc3Cl)cc2)S1`
Completion: 100

Prompt: Also check `Cn1cc(-c2nn3cc(-c4ccncc4)nc3s2)c2cc(Cl)ccc21`
Completion: 83

Prompt: Also check C/C(=N\NC(=O)CSc1nc2sc3c(c2c(=O)n1-c1ccccc1)CCC(C)C3)c1ccc(Cl)cc1 (centres undefined)
Completion: 35.3

Prompt: Also check `O=C(Cn1cc(CN2C(=O)c3ccc([N+](=O)[O-])cc3C2=O)nn1)Nc1ccccc1Br`
Completion: 102

Prompt: Also check CC(C)=CCC[C@](C)(O)[C@H]1CC[C@]2(C)[C@@H]1CC[C@@H]1[C@@]3(C)CCC(NC(=O)c4ccccc4C(=O)O)C(C)(C)[C@@H]3CC[C@]12C (some centres undefined)
Completion: 86.3

Prompt: Also check `O=C(/C=C1\C=CN(CCCCF)c2ccccc21)n1ccc2ccccc21`
Completion: 105

Prompt: Also check `O=C(COc1ccc(/C=C2\SC(=O)NC2=O)cc1)Nc1ccc(C(=O)/C=C/c2cc3ccccc3nc2Cl)cc1`
Completion: 82

Data origin: PubChem BioAssay (NCI)
